Test system: mixed culture containing Actinomyces viscosus, Lactobacillus casei, Streptococcus oralis, Fusobacterium nucleatum and Veilonella parvula
Experiment: Growth inhibition (OD610), mixed chemostat culture
Assay type: cell-based, A. viscosus, L. casei, S. oralis, F. nucleatum, V. parvula
Conditions: Mixed Species (anaerobic); read-out: IC50
pIC50: −log10 of the molar value.

Molecule	pIC50
CC(=O)[O-].CC(=O)[O-].[Zn+2] [Zinc Acetate alone, Zinc (II) Acetate]	3.60
